test system: HPV-16; assay: qPCR sensitivity against HPV-HNSCC tumor samples diluted among 10 ng normal human DNA; settings: Sample # 32
test.readout: Threshold of tumor cell numbers for HPV-16 detection (tumor cells)
All answers are understood in tumor cells, so give the number only.

Input E7: previously designed (historical) HPV-16 E7 primers and Taqman probe, SEQ ID NO: 10-12; part of CLIA test (nucleic acid, Taqman probe, labels not given here, part of CLIA test) DNA 1: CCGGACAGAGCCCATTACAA DNA 2: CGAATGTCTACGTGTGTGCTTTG DNA 3: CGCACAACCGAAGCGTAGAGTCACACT . Output Threshold of tumor cell numbers for HPV-16 detection: 15.0

Input HR E5L2-4: primer/probe set for junction between E5 and L2, SEQ ID NO: 55-57 (same as SEQ ID NO: 4-6) (nucleic acid, chemistry not given here) DNA 1: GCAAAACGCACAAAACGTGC DNA 2: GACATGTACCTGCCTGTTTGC DNA 3: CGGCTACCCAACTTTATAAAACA . Output Threshold of tumor cell numbers for HPV-16 detection: 30.0

Input E6: previously designed (historical) HPV-16 E6 primers and Taqman probe, SEQ ID NO: 7-9, positive control (nucleic acid, Taqman probe, labels not given here) DNA 1: TCAGGACCCACAGGAGCG DNA 2: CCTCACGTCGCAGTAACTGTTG DNA 3: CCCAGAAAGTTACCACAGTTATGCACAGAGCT . Output Threshold of tumor cell numbers for HPV-16 detection: 15.0

Input BR E1-6: HPV-16 E1 region primer/probe set, SEQ ID NO: 43-45 (nucleic acid, chemistry not given here) DNA 1: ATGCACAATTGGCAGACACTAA DNA 2: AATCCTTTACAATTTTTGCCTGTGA DNA 3: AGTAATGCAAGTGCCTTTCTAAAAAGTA . Output Threshold of tumor cell numbers for HPV-16 detection: 9.0

Input BR E1-4: HPV-16 E1 region primer/probe set, SEQ ID NO: 37-39 (nucleic acid, chemistry not given here) DNA 1: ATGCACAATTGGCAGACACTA DNA 2: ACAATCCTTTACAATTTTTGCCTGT DNA 3: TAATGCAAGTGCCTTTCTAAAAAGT . Output Threshold of tumor cell numbers for HPV-16 detection: 9.0

Input BR E6-1: HPV-16 E6 region (172-373 bp) primer/probe set, SEQ ID NO: 58-60 (nucleic acid, chemistry not given here) DNA 1: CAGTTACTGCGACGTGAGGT DNA 2: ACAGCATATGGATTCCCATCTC DNA 3: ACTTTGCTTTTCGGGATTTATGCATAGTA . Output Threshold of tumor cell numbers for HPV-16 detection: 15.0

Input BR E1-5: HPV-16 E1 region primer/probe set, SEQ ID NO: 40-42 (same as SEQ ID NO: 1-3) (nucleic acid, chemistry not given here) DNA 1: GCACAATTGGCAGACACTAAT DNA 2: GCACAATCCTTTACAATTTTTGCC DNA 3: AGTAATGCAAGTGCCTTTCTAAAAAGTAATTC . Output Threshold of tumor cell numbers for HPV-16 detection: 15.0
